system.name: Histamine H4 receptor (Homo sapiens)
Sequence (Q9H3N8 whole entry): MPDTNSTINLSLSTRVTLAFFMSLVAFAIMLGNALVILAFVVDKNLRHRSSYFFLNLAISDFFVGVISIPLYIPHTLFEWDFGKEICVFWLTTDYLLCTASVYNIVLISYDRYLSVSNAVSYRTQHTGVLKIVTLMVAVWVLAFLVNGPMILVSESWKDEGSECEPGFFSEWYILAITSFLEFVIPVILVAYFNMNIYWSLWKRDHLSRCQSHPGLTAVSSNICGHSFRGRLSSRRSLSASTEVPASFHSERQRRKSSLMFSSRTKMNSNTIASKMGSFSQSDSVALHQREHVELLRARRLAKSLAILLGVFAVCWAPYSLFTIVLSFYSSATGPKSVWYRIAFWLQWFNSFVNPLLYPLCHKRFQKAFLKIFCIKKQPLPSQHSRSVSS
test.method.notes: Displacement of [3H]histamine from human histamine 4 receptor expressed in Sf9 cell membranes by liquid scintillation counting
readout: pKi
Scale explanation: pKi corresponds to minus log10 of a concentration expressed in moles per litre.

- compound: "CN1CCN(c2nc(NCCc3ccccc3)nc3c2-c2ccccc2CC3)CC1"
  pKi: 5.17
- compound: "CN1CCN(c2nc(NCCc3ccccc3)c3c(n2)-c2ccccc2CC3)CC1"
  pKi: 4.82
- compound: "COc1ccc(CNc2nc3c(c(N4CCN(C)CC4)n2)CCc2ccccc2-3)cc1"
  pKi: 5.37
- compound: "COc1ccc(CNc2nc(-c3ccccc3)cc(N3CCN(C)CC3)n2)cc1"
  pKi: 5.76

I'm curious: which pKi was measured for `CN1CCN(c2nc(NCc3ccccc3)cc(-c3ccccc3)n2)CC1` tested on Histamine H4 receptor (Homo sapiens)?
4.50

I'm curious: which pKi was measured for `CN1CCN(c2nc(NCc3ccccc3)nc3c2CCc2ccccc2-3)CC1` tested on Histamine H4 receptor (Homo sapiens)?
5.80

I'm curious: which pKi was measured for `CN1CCN(c2nc(N)nc3c2CCc2ccccc2-3)CC1` tested on Histamine H4 receptor (Homo sapiens)?
6.73

###

system.name: Histamine H3 receptor (Homo sapiens, UniProt Q9Y5N1)
Sequence (Q9Y5N1 whole entry): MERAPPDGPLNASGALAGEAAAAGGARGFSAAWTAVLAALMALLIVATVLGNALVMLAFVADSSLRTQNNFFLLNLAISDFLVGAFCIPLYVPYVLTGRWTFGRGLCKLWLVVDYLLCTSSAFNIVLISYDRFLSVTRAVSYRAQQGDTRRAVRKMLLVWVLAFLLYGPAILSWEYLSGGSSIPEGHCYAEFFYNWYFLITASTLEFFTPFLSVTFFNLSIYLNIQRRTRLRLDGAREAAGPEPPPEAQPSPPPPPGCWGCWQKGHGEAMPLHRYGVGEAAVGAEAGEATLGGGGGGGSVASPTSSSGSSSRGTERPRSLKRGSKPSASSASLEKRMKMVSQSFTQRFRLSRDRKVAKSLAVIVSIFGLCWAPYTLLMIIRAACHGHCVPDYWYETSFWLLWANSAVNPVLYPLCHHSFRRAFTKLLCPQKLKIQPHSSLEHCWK
readout: Ki (µM)
I only need the number, in µM, no unit after it.

Give the measured Ki of `CN1CCN(c2cc(-c3ccccc3)nc(NCc3ccccc3)n2)CC1` .
2.51

###

system.name: Histamine H1 receptor (Homo sapiens)
Sequence (P35367 whole entry): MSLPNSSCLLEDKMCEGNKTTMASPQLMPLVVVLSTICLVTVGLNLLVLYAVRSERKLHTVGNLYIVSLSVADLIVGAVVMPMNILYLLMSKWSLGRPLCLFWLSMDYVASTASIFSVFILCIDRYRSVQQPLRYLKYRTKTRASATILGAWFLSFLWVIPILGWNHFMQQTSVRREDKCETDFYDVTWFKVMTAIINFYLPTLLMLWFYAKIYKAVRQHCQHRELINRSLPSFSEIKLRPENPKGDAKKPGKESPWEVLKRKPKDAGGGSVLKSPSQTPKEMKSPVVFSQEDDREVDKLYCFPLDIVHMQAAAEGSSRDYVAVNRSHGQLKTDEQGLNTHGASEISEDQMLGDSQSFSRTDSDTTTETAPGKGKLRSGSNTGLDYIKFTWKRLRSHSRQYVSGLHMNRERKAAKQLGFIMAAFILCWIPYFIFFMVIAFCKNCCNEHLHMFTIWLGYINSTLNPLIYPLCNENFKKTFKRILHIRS
In plain terms, low Ki, meaning strictly below 5 µM, gives t, and everything else gives f.

- compound: "CN1CCN(C2=Nc3ccc(Cl)cc3Oc3ccccc32)CC1"
  group: "t"
- compound: "CN1CCN(c2nc(NCCc3ccccc3)nc3c2CCc2ccccc2-3)CC1"
  group: "f"
- compound: "COc1ccc(CNc2nc(-c3ccccc3)cc(N3CCN(C)CC3)n2)cc1"
  group: "f"
- compound: "CN1CCN(c2nc(NCc3cccs3)c3cc(Cl)ccc3n2)CC1"
  group: "t"
- compound: "CN1CCN(c2nc(NCc3ccccc3)c3c(n2)-c2ccccc2CC3)CC1"
  group: "t"

Okay, next one:
A record lists `CN1CCN(c2nc(NCCc3ccccc3)c3c(n2)-c2ccccc2CC3)CC1` . Is its Ki below 5 µM?
f

###

As a worked illustration, we turn to Ki data collected for Histamine H2 receptor (Homo sapiens, UniProt P25021).
I only need the number, in µM, no unit after it.

- compound: "CN1CCN(c2cc(-c3ccccc3)nc(NCc3ccccc3)n2)CC1"
  reported: 10.2

I'm curious: which Ki was measured for `CN1CCN(c2nc(N)nc3c2CCc2ccccc2-3)CC1` tested on Histamine H2 receptor (Homo sapiens, UniProt P25021)?
31.6

Provenance of the data: ChEMBL document CHEMBL3751732
